# Tested system: CYP2C19 (Homo sapiens, UniProt P33261)
# Construct: tissue Cypex Ltd. (UK); host or cells: pooled human liver microsomes, ten donors
# Sequence (P33261 whole entry): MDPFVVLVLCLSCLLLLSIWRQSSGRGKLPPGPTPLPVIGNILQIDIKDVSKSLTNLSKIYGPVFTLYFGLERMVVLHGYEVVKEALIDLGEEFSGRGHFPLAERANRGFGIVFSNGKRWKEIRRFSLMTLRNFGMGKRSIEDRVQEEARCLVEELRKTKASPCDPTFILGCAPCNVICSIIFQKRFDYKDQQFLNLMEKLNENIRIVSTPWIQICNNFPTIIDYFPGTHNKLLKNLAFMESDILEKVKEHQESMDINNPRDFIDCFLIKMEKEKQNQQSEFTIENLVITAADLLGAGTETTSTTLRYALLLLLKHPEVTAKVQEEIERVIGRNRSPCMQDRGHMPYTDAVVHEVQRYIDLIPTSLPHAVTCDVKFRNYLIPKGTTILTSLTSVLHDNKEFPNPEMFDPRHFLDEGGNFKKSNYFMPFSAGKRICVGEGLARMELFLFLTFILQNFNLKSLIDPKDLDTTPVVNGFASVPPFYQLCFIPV
# Procedure text: Inhibition of S-mephenytoin 4-hydroxylation in HLMs
# Type: in vitro ADME
# Measurement context: classification of Kong et al.; read-out: potency class of inhibitor by IC50
Reported metric: IC50

# input Form field: reported IC50 of Cc1c(S(=O)(=O)O)oc2c1C(=O)C(=O)c1c-2ccc2c1CCCC2(C)C [STS, sodium tanshinone IIA sulfonate]
# output ≥ 50 µM

###

# Tested system: CYP2E1 (Homo sapiens, UniProt P05181)
# Construct: tissue Cypex Ltd. (UK); host or cells: pooled human liver microsomes, ten donors
# Sequence (P05181 whole entry): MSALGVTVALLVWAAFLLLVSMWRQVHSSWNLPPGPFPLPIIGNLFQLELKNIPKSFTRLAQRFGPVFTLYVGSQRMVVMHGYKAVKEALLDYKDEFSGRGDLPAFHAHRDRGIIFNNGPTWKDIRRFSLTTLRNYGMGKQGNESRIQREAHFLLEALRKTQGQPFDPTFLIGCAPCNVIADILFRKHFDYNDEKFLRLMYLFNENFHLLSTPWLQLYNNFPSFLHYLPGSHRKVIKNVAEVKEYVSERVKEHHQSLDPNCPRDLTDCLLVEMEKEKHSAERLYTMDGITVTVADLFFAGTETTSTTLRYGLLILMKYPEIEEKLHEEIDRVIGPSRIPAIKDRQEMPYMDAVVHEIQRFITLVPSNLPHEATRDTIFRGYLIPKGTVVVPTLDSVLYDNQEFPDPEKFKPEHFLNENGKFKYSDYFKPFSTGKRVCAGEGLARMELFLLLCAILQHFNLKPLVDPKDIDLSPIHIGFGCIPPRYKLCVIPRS
# Procedure text: Inhibition of chlorzoxazone 6-hydroxylation in HLMs
# Format: in vitro ADME
# Measurement context: STS 1–100 µM, chlorzoxazone 40 µM, HLMs; read-out: IC50
# Description: The CYP isoform-specific probe reactions used were phenacetin O-deethylation (for CYP1A2), coumarin 7-hydroxylation (for CYP2A6), tolbutamide 4-hydroxylation (for CYP2C9), metoprolol α-hydroxylation (for CYP2D6), chlorzoxazone 6-hydroxylation (for CYP2E1), S-mephenytoin 4-hydroxylation (for CYP2C19), and midazolam 1-hydroxylation (for CYP3A4). […] Each reaction was initiated by addition of 1 mg/mL NADPH. The final incubations were performed in a shaking water bath at 37 °C for 30 min. […]
Reported metric: IC50

# input Form field: reported IC50 of Cc1c(S(=O)(=O)O)oc2c1C(=O)C(=O)c1c-2ccc2c1CCCC2(C)C [STS, sodium tanshinone IIA sulfonate]
# output > 100 µM

###

# Tested system: CYP2A6 (Homo sapiens)
# Construct: tissue Cypex Ltd. (UK); host or cells: pooled human liver microsomes, ten donors
# Sequence (P11509 whole entry): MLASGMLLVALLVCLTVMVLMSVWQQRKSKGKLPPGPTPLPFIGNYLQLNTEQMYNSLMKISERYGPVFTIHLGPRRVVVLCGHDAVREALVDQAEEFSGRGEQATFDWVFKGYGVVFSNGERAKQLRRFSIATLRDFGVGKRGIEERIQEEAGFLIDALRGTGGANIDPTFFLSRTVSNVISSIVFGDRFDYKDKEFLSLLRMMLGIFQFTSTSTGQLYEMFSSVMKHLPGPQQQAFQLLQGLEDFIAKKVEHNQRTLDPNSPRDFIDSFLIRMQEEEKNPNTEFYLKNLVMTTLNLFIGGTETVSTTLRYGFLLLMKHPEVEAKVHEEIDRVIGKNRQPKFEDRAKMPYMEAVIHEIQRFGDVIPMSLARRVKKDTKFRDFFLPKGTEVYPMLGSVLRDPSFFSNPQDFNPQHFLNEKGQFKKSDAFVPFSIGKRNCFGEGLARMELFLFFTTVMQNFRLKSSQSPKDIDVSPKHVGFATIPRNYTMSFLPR
# Procedure text: Inhibition of coumarin 7-hydroxylation in HLMs
# Type: in vitro ADME
# Measurement context: classification of Kong et al.; read-out: potency class of inhibitor by IC50
# Method: The CYP isoform-specific probe reactions used were phenacetin O-deethylation (for CYP1A2), coumarin 7-hydroxylation (for CYP2A6), tolbutamide 4-hydroxylation (for CYP2C9), metoprolol α-hydroxylation (for CYP2D6), chlorzoxazone 6-hydroxylation (for CYP2E1), S-mephenytoin 4-hydroxylation (for CYP2C19), and midazolam 1-hydroxylation (for CYP3A4). […] Each reaction was initiated by addition of 1 mg/mL NADPH. The final incubations were performed in a shaking water bath at 37 °C for 30 min. […]
pIC50: −log10 of the molar value.
Reported metric: pIC50

# input Form field: reported pIC50 of Cc1c(S(=O)(=O)O)oc2c1C(=O)C(=O)c1c-2ccc2c1CCCC2(C)C [STS, sodium tanshinone IIA sulfonate]
# output ≤ 4.30

###

# Procedure text: Kinetic analysis of STS metabolism by human liver microsomes
# Format: in vitro ADME
# Measurement context: human, human liver microsomes, pH 7.4; read-out: in vitro CLint
Reported metric: microsomal CLint (µL/min/mg)
Write the answer as a number in µL/min/mg, unit excluded.

# input Form field: reported microsomal CLint of Cc1c(S(=O)(=O)O)oc2c1C(=O)C(=O)c1c-2ccc2c1CCCC2(C)C [STS, sodium tanshinone IIA sulfonate]
# output 16
